Cited source: paper PMC4336329

# targetOrSystem: human ether-à-go-go-related gene (hERG) potassium channel (human, UniProt Q12809);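 also: peak tail current of the secondary pulse compared with the same well before compound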
# Sequence (Q12809 whole entry, looked up): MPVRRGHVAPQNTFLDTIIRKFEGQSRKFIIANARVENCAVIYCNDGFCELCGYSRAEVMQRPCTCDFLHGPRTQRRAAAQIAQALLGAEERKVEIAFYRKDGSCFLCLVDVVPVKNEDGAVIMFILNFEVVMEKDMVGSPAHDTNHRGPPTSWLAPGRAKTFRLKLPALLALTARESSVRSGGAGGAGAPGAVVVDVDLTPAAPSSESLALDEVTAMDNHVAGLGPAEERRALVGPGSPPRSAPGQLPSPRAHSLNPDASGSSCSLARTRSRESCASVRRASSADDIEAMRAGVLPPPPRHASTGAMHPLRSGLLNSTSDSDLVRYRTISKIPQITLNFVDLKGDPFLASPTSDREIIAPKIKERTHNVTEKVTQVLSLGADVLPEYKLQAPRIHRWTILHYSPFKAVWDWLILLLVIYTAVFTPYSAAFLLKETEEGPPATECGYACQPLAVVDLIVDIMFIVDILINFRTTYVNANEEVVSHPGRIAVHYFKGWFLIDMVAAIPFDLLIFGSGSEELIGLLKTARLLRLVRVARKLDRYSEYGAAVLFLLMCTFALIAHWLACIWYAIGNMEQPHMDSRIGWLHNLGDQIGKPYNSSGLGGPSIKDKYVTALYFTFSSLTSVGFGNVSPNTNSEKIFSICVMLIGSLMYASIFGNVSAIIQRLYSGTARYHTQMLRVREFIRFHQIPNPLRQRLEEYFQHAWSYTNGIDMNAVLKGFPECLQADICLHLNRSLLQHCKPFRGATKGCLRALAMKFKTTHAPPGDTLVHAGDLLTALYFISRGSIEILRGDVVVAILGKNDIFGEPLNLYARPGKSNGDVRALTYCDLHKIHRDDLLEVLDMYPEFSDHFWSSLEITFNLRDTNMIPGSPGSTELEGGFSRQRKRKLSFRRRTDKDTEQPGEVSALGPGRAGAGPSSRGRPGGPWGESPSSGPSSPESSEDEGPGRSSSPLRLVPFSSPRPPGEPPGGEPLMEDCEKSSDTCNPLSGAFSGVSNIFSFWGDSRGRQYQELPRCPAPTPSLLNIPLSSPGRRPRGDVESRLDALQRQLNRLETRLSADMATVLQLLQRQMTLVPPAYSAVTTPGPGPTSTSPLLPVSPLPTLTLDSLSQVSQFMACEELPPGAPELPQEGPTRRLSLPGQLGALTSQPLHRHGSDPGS
# measurementDescription: primary screen, population patch clamp on CHO cells stably expressing hERG; higher = less effect of the substance
The campaign covered roughly 310,000 compounds. About 14,000 (4.5%) showed an effect of 50% or more. Effects have a minus sign here. The sample holds strong results, similar compounds and a random draw of the others, so the mix is not that of the screen.
recordedEndpoint: hERG current change (%, negative = inhibition) at 10uM (%)
Write the value in % as a bare number.

CCN(CC(=O)N1CCCC1)S(=O)(=O)c1ccc(Br)cc1: 13.5
Cc1nc(N/N=C/c2ccc(Br)cc2)cc(N2CCOCC2)n1: -0.525
Cn1c(=O)c2c(SCC(=O)NCc3ccco3)nc(CC(C)(C)C)nc2n(C)c1=O: -57.4
O=C(NCCCn1ccnc1)C(Cc1ccc([N+](=O)[O-])cc1)N1C(=O)c2ccccc2C1=O (centres unmarked): -62.3

# lookup: human ether-à-go-go-related gene (hERG) potassium channel (human, UniProt Q12809) hERG current change (%, negative = inhibition) at 10uM, key = CCCc1nc(SCC(=O)NCc2ccco2)c2c(=O)n(C)c(=O)n(C)c2n1
0.943

Recall the reported hERG current change (%, negative = inhibition) at 10uM of COc1ccc(C2N(C(=O)CN3CCCC3)CCCN2S(=O)(=O)c2ccccc2)cc1 (centres unmarked) when tested on human ether-à-go-go-related gene (hERG) potassium channel (human, UniProt Q12809).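 Also: peak tail current of the secondary pulse compared with the same well before compound.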
-15.8

---

# targetOrSystem: human ether-à-go-go-related gene (hERG) potassium channel (human);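 also: peak tail current of the secondary pulse compared with the same well before compound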
# measurementDescription: primary screen, population patch clamp on CHO cells stably expressing hERG; higher = less effect of the substance
Out of some 310,000 compounds screened, about 14,000 (4.5%) showed an effect of 50% or more. Effects have a minus sign here. Many of the other results were omitted from the sample, so strong results are more common in it than they were.
recordedEndpoint: hERG current change (%, negative = inhibition) at 10uM (%)
Kindly answer with a numeric value in %, unit omitted.

Reference set (10 entries):
O=C(Nc1ccccc1F)C1CCCN(S(=O)(=O)c2ccccc2)C1 (centres unmarked): -10.3
CCOC(=O)CCc1c(C)nc(SCC(=O)O)c(C#N)c1C: -2.59
Cc1ccc(CN2C(=O)CCC2C(=O)NCc2ccc3c(c2)OCO3)cc1 (centres unmarked): -17.4
CSc1nc(SCC(=O)NCc2ccco2)c2c3c(sc2n1)CN(C)CC3: -0.986
CS(=O)(=O)c1ccccc1C(=O)Nc1cc(Cl)ccc1-n1cncn1: 13.4
CCN1CCN(Cc2ccccc2NC(=O)Nc2ccc(C)cc2)CC1: -0.992
Cc1cccc(OCC(=O)N(Cc2ccccc2)c2c(N)n(Cc3ccccc3)c(=O)[nH]c2=O)c1: -11.2
O=C(CCCn1c(SCC(=O)NCC2CCCO2)nc2ccccc2c1=O)NCC1CCCO1 (centres unmarked): -5.18
Fc1ccc(NC(=S)N/N=C/c2ccc(F)c(F)c2)c(F)c1: 13
CCOc1ccc(N2CC(C(=O)Nc3c(C)n(C)n(-c4ccccc4)c3=O)CC2=O)cc1 (centres unmarked): 22.6

Using the record for O=C(CS)Nc1ccc2ccccc2c1 , state its measured hERG current change (%, negative = inhibition) at 10uM.
20.8

Indicate its recorded hERG current change (%, negative = inhibition) at 10uM; the compound in question is CCc1nc(SCC(=O)N2c3ccccc3CC2C)c2c(C)c(C)sc2n1 (centres unmarked)
-5.78

Please give the documented hERG current change (%, negative = inhibition) at 10uM of CCN(CC)CCCNc1nc(SC)nc2sc3c(c12)CCN(C)C3
11

Let me know recorded hERG current change (%, negative = inhibition) at 10uM for Cc1cccc(NC(=O)CCC(=O)c2cccs2)n1 , thanks.
12

Name the recorded hERG current change (%, negative = inhibition) at 10uM of the item CCOc1ccc(NC(=O)CSc2nc3ccccc3c(=O)n2CCCC(=O)NCC2CCCO2)cc1 (centres unmarked) in your answer.
3.34

Please give measured hERG current change (%, negative = inhibition) at 10uM of the following entry: Cc1ccc(NC(=O)CSc2nc3ccccc3c(=O)n2CCCC(=O)NCC2CCCO2)cc1 (centres unmarked)
-0.641

Supply measured hERG current change (%, negative = inhibition) at 10uM of CCOC(=O)CCc1c(C)nc(SCc2ccc(C(=O)O)cc2)c(C#N)c1C in your reply.
-11.7

For the compound CC1CCCC(C)N1NC(=O)c1cccc(S(=O)(=O)N2CCc3ccccc32)c1 (centres unmarked) , report hERG current change (%, negative = inhibition) at 10uM.
-2.22

Please report hERG current change (%, negative = inhibition) at 10uM for the following compound: CSc1nc(NCc2ccco2)c2c3c(sc2n1)CN(C)CC3
-75

Hello, please tell me recorded hERG current change (%, negative = inhibition) at 10uM for this one: CCOC(=O)CCc1c(C)nc(SCCN2CCCC2)c(C#N)c1C
-63.9
